Exercise: state measured pIC50 for each of the molecules provided.
- TARGET_ENTITY: H1047R PIK3CA enzyme (Homo sapiens, UniProt P42336, H1047R)
- Sequence (P42336 whole entry H1047R): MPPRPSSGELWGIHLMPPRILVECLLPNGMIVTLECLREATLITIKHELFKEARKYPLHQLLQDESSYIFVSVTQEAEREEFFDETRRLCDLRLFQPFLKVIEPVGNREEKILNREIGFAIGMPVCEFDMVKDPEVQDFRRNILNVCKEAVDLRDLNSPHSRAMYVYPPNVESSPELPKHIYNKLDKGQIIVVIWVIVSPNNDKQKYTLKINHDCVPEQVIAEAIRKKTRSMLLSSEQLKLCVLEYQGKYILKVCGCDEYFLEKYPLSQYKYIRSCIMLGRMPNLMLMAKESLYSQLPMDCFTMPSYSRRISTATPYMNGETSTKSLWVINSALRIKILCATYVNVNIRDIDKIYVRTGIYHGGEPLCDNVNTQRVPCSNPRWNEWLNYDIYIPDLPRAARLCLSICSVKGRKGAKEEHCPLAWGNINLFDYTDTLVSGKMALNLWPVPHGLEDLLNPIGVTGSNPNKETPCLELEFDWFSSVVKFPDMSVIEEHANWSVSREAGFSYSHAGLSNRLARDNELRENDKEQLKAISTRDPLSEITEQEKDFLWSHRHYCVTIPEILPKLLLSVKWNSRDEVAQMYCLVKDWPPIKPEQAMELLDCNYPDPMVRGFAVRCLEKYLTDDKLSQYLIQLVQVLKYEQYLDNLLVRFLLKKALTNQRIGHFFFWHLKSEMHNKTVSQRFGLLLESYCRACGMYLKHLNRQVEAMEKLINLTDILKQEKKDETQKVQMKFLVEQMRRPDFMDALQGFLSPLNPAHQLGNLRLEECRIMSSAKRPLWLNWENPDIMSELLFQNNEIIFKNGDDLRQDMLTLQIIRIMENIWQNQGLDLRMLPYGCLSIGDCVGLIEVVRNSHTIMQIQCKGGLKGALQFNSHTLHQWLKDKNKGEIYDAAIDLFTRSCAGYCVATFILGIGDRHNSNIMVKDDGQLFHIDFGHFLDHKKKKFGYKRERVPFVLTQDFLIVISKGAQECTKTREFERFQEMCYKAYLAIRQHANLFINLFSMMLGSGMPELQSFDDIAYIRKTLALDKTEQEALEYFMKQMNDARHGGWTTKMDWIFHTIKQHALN
- Sequence (P27986 whole entry partner): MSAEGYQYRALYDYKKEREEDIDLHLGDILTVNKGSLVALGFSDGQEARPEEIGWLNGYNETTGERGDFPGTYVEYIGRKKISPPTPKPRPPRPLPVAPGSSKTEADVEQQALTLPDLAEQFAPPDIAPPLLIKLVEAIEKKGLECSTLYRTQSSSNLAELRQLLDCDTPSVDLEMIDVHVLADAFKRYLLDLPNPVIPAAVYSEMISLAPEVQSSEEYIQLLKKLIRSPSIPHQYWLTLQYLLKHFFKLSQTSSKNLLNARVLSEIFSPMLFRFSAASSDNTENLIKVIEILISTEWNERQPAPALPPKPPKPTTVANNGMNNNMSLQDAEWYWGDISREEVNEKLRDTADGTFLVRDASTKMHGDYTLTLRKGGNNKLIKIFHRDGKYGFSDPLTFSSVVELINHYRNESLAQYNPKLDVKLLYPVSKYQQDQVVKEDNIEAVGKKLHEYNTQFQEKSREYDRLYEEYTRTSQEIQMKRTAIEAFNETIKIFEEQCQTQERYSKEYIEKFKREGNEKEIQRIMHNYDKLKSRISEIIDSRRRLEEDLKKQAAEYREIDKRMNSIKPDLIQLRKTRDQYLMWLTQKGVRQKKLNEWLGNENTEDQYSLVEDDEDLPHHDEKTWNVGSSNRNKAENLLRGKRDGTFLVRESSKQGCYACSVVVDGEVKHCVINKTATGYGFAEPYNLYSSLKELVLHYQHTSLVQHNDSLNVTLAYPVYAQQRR
- ASSAY_DETAILS: ADP-Glo Biochemical PIK3CA Kinase Assay
pIC50: −log10 of the molar value.

Consider the worked cases shown below.
CC(C)(O)c1cc(NC(=O)N2C[C@H](O)c3ccccc32)c2c(c1)C(=O)N[C@@H]2c1cc(F)ccc1Cl (single isomer, unassigned) [Compound I-2121] | 5.00 to 6.00
Cc1nn(C)cc1-c1cc(NC(=O)c2cc(F)cc(Cl)c2)c2c(n1)C(=O)NC2c1cc(F)ccc1Cl (stereo not shown) [Compound I-380] | 6.30 to 7.00
O=C1NC(c2cc(F)ccc2Cl)c2c(Nc3nn(CCO)c4ccccc34)cc(-c3ccc4ncnn4c3)cc21 (stereo not shown) [Compound I-1807] | 5.00 to 6.00
CC(O)C(CC(=O)Nc1cccc2c1C(c1cc(F)ccc1Cl)NC2=O)C(C)C(F)(F)F (stereo not shown) [Compound I-2198] | 4.00 to 5.00
CC(O)C1NC(=O)c2cccc(NC(=O)c3cc(F)cc(C(F)(F)F)c3)c21 (stereo not shown) [Compound I-1776] | 5.00 to 6.00
COc1cccc(-c2cc(NC(=O)c3cc(F)cc(C(F)(F)F)c3)c3c(c2)C(=O)N[C@H]3c2cc(F)ccc2Cl)n1 (stereo in doubt) [Compound I-1006] | ≥ 7.00

Kindly consider the entry below.
Q) Data request, read-out pIC50, for CC(C)(C)C(=O)Nc1cc(Br)cc2c1C(c1cc(F)ccc1Cl)NC2=O (stereo not shown) [Compound I-1139]
A) 5.00 to 6.00
